Inhibition rate (%) at 22.2 nM values by entry
target system: T1, CTLA-4-hFc (immunogen A; hFc-labeled CTLA-4 extracellular domain protein) (human, UniProt P16410 36-161)
T1 construct: range 36-161; Made in HEK293 cells, purified on protein A; also called CLTA-4-hFc; CTLA-4 protein; not shown: human IgG Fc fragment (hFc) of the pCpC vector
T1 sequence (looked up): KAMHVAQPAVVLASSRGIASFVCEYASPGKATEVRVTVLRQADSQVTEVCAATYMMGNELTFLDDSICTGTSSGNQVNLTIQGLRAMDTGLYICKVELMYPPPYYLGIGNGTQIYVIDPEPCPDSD
procedure text: ELISA, coated CTLA-4-hFc, competitor biotin-B7.2-hFc
# number then unit; no other words

Tell me the measured Inhibition rate (%) at 22.2 nM of 40C4C6 (chimeric antibody purified from hybridoma supernatant) (antibody, V domains shown, also called mAb09; mAb009) VH: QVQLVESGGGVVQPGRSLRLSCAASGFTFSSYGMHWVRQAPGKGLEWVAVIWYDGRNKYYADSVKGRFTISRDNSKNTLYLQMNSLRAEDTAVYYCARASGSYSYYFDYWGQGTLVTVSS VL: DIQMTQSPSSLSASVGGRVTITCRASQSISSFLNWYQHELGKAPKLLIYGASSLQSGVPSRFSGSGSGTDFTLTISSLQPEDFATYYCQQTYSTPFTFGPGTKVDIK , please.
84.6%

Others:
Tell me the measured Inhibition rate (%) at 22.2 nM of 92C8B6 (chimeric antibody purified from hybridoma supernatant) (antibody, V domains shown, also called mAb42; mAb042) VH: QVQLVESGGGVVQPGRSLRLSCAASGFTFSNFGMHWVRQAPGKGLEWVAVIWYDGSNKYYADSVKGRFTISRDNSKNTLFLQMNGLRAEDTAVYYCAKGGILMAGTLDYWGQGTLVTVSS VL: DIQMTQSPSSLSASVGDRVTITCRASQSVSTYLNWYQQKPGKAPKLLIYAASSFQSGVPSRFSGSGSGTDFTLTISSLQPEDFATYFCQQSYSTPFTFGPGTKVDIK , please.
94%

Tell me the measured Inhibition rate (%) at 22.2 nM of 97A8D1 (chimeric antibody purified from hybridoma supernatant) (antibody, V domains shown, also called mAb49; mAb049) VH: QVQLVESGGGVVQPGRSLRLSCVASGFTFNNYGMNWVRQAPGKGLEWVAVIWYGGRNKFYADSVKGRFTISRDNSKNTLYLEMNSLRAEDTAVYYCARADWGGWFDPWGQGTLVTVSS VL: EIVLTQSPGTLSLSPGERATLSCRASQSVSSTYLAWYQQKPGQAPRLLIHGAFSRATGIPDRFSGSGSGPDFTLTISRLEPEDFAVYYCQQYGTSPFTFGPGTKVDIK , please.
94%

Tell me the measured Inhibition rate (%) at 22.2 nM of 31C12F3 (chimeric antibody purified from hybridoma supernatant) (antibody, V domains shown, also called mAb010) VH: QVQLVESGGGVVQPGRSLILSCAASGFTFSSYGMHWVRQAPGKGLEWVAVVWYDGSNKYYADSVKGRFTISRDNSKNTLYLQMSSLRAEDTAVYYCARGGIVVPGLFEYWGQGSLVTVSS VL: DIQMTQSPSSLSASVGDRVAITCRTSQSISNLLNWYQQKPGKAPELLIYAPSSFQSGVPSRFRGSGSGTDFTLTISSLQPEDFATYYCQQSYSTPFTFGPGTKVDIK , please.
92.1%
